Provenance of the data: paper PMC3804772

Tested on: MCF-7 cells
assay_comment: Cell cycle analysis by flow cytometry (propidium iodide)
Assay type: cell-based, human
measurement_conditions: MCF-7, 25 µM, 24 hours
Listing of recorded Cell cycle parameters % Sub-G1, 24 hours by entry.
measurement_name: Cell cycle parameters % Sub-G1, 24 hours (%)

CCOC(=O)CN1CCc2cc3c(c(OC)c2[C@@H]1[C@H]1OC(=O)c2c1ccc(OC)c2OC)OCO3 : 8.29
COC(=O)CN1CCc2cc3c(c(OC)c2[C@@H]1[C@H]1OC(=O)c2c1ccc(OC)c2OC)OCO3 : 12.25
COc1ccc2c(c1OC)C(=O)O[C@@H]2[C@@H]1NCCc2cc3c(c(OC)c21)OCO3 : 8.46
COc1ccc(CN2CCc3cc4c(c(OC)c3[C@@H]2[C@H]2OC(=O)c3c2ccc(OC)c3OC)OCO4)cc1 : 7.27
COc1ccc2c(c1OC)C(=O)O[C@@H]2[C@H]1c2c(cc3c(c2OC)OCO3)CCN1C : 7.24
COc1cccc(CN2CCc3cc4c(c(OC)c3[C@@H]2[C@H]2OC(=O)c3c2ccc(OC)c3OC)OCO4)c1 : 10.86
COc1ccc2c(c1OC)C(=O)O[C@@H]2[C@H]1c2c(cc3c(c2OC)OCO3)CCN1Cc1cccc(Cl)c1 : 8.17
